- Tested Target: PfPMX (recombinant plasmepsin X) (Plasmodium falciparum, UniProt Q8IAS0)
- Sequence (Q8IAS0 222-573): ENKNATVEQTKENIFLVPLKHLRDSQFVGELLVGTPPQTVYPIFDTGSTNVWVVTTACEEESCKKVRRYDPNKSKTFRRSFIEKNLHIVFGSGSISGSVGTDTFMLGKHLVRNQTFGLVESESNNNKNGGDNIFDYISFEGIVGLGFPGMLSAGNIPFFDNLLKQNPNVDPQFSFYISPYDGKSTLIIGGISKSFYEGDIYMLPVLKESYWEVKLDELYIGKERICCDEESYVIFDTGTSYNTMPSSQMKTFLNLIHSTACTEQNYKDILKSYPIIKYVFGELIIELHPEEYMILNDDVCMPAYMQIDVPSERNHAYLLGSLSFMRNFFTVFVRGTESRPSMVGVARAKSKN
- Method Summary: FRET based assay for plasmepsin X cleavage of Rh2 peptide substrate
- Measurement Parameters: AVG, N=2, pH 5.5
Property Label: pKi
The meaning of pKi here: minus log10 of the concentration in molar units.

The compound listed as `CCC1(CC)CC(=O)N([C@H](c2cccnc2)[C@H]2C[C@@H]2C(=O)N[C@H]2CC(C)(C)Oc3ccccc32)C(=N)N1` has a reported pKi of 10.59

###

- Test system: ring stage parasites (Pf)
- Method Summary: Parasite lactate dehydrogenase (LDH) growth assay (Parasite Assay, PfLDH Assay)
- Format: cell-based, P. falciparum
- Measurement Parameters: Table 4; 72 hours growth, LDH readout; read-out: EC50 (Table 4)
Property Label: EC50 (nM)
Write it as a number; the unit nM goes unstated.

// solved cases for EC50 follow
molecule="CCC1(CC)CC(=O)N(C(CC(C)OC)[C@H]2C[C@@H]2C(=O)N[C@H]2CC(C)(C)Oc3ccccc32)C(=N)N1 (single isomer, unassigned) [Example 142A]" tested_target="ring stage parasites (Pf)" unit_abbreviation=nM recorded_result=1.9
molecule="CCC1(CC)CC(=O)N([C@H](CCOC)[C@H]2C[C@@H]2C(=O)NC2CC(C)(C)Oc3cc(Cl)ccc32)C(=N)N1 (single isomer, unassigned) [Example 147A]" tested_target="ring stage parasites (Pf)" unit_abbreviation=nM recorded_result=2.8

Below: the item to evaluate.
EC50 on ring stage parasites (Pf) for CCC1(CC)CC(=O)N(C(CC(C)OC)[C@H]2C[C@@H]2C(=O)N[C@H]2CC(C)(C)Oc3ccccc32)C(=N)N1 (single isomer, unassigned) [Example 142B] is 0.7
